# System: RXF 393 renal
# Assay summary: NCI tumour cell line growth inhibition, 48 h
Property measured: TGI (µM)
Enter your answer as a number in µM; do not include the unit.

Sample answers from the record:
>  <Molecule>
CC(C)C(C/C=C1/CC(CO)(COC(=O)c2ccccc2)OC1=O)C(C)C (stereo unspecified)

>  <TGI (µM)>
31.2

$$$$
>  <Molecule>
Oc1cccc2cc(Br)cnc12

>  <TGI (µM)>
88.2

$$$$
>  <Molecule>
NC(=O)/C=c1/c2ccccc2n2nc3ccccc3c12

>  <TGI (µM)>
46.5

$$$$
>  <Molecule>
CC(=O)ON1C(=O)c2cccc3cccc(c23)C1=O

>  <TGI (µM)>
25.5

$$$$

With those in mind, consider the next molecule.
## Input Consider the molecule CC(C)(C)OC(=O)c1ccc(NCC2=CC(=O)C=CC2=O)cc1 and give its measured TGI.
## Output 23.6

Reference source for all entries: PubChem BioAssay (NCI)
